Test system: 521955-158-R2-J5-PDC complex spheroid growth, % test/control;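 also: spheroids exposed to agents for 7 days before readout; 100% = DMSO vehicle control viability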
ASSAY METHOD TEXT: Anticancer human tumor 521955-158-R2-J5-PDC patient-derived pancreatic carcinoma cell line growth inhibition [Asc]
SETUP CONDITIONS: second compound 0.1 µM; first compound 0.1 µM; stronger effect = lower value
From the text: Multicellular complex tumor spheroid response to apoptosis pathway targeting inhibitors Alrizomadlin, Pelcitoclax, and Dasminapant in combination with a variety of drugs and investigational agents in selected tumor cell lines […] Compounds. […] If the clinical Cmax for an agent had not been determined, the highest concentration tested was 10 microM. […]
QUANTITY: viability, T/C (%)
Provide only the numeric value, understood in %.

Observe how each entry below is paired with its result.
- C=CC(=O)N1CCN(c2nc(=O)n(-c3c(C)ccnc3C(C)C)c3nc(-c4c(O)cccc4F)c(F)cc23)C(C)C1 (stereo not drawn) + Cc1c(S(C)(=O)=O)c(-c2cc(F)cc(N3CCN(c4ccc(NS(=O)(=O)c5ccc(NC(CCN6CCC(C(=O)OCCCP(=O)(O)O)CC6)CSc6ccccc6)c(S(=O)(=O)C(F)(F)F)c5)cc4)CC3)c2)c(-c2ccc(Cl)cc2)n1C(C)C: 87.5
- NC1CCC(NC2CC2c2ccccc2)CC1 (stereo not drawn) + Cc1c(S(C)(=O)=O)c(-c2cc(F)cc(N3CCN(c4ccc(NS(=O)(=O)c5ccc(NC(CCN6CCC(C(=O)OCCCP(=O)(O)O)CC6)CSc6ccccc6)c(S(=O)(=O)C(F)(F)F)c5)cc4)CC3)c2)c(-c2ccc(Cl)cc2)n1C(C)C: 48.4

Memo: C=C(F)C(=O)N1CCN(c2nc(OCC3CCCN3C)nc3c2CCN(c2cccc4cccc(Cl)c24)C3)CC1CC#N (stereo not drawn) + CNC(C)C(=O)NC1CN(S(=O)(=O)c2cccc(S(=O)(=O)N3CCC4CCC(C(=O)NC(c5ccccc5)c5ccccc5)N4C(=O)C(NC(=O)C(C)NC)C3)c2)CCC2CCC(C(=O)NC(c3ccccc3)c3ccccc3)N2C1=O , reported viability, T/C: 106

Values compiled from PubChem BioAssay AID1963430.
